pIC50: −log10 of the molar value.
Reported values: pIC50 for human PDE1B (Homo sapiens (Human)), one per item.
value_type: pIC50

>>> value_observed("Cc1c(C)n2c(C3(C4CC4)CC3)nnc2c(=O)n1CC1CCC1")
8.44
>>> value_observed("Cc1c(C)n2c(C3(C4CC4)CC3)nnc2c(=O)n1CC1(C)CC1")
8.31
>>> value_observed("CCCCn1c(C)c(CC)n2c(C3(C4CC4)CC3)nnc2c1=O")
8.18
>>> value_observed("Cn1cc(Cc2cn3c(C4(C5CC5)CC4)nnc3c(=O)n2CC2CC2)cn1")
7.53
>>> value_observed("Cc1c(C)n2c(C3(C4CC4)CC3)nnc2c(=O)n1CC1CC1")
8.39
>>> value_observed("CCCCCn1c(C)c(C)n2c(C3(C4CC4)CC3)nnc2c1=O")
8.03
>>> value_observed("CCCCn1c(C)c(C)n2c(C3(C4CC4)CC3)nnc2c1=O")
7.95

* * *

Each entry below lists one item and its recorded pIC50 value.
Biological target: human PDE1A (Homo sapiens (Human), UniProt P54750)
pIC50: −log10 of the molar value.
value_type: pIC50

>>> value_observed("CCCCn1c(C)c(CC)n2c(C3(C4CC4)CC3)nnc2c1=O")
8.06
>>> value_observed("CCCCCn1c(C)c(C)n2c(C3(C4CC4)CC3)nnc2c1=O")
7.96
>>> value_observed("CCCCn1c(C)c(C)n2c(C3(C4CC4)CC3)nnc2c1=O")
7.94
